Listing of entries alongside the reported inhibition of binding.
Test system: anti-Dsg3 scFv antibody binding to human desmoglein-3
Test Details: inhibitors of pemphigus antibody-Dsg3 interaction – biochemical, ELISA, orthogonal assay for pemphigus antibody inhibitor project, confirmation (AID 624333)
Condition Info: OD, at 200 µM, stronger effect = higher value
Measurement Name: inhibition of binding (%)

>>> print(df.to_string())
                              smiles_record  numeric_value
0  CCc1ccc(OCC(=O)Nc2ccc(N3CCN(C(=O)c4ccccc4)CC3)cc2)cc1             -5
1         CC(C)OC(=O)CSc1nc2c(cc1C#N)CCCCC2             -2
2     CCOc1ccccc1NCc1cc(=O)oc2cc(C)c(O)cc12             -4
3    CSc1ccccc1OCc1cc(C(=O)NCCC2=CCCCC2)no1            -14
4  COc1ccccc1NC(=O)Cn1nnc(-c2ccccc2NC(=O)c2cc3ccccc3oc2=O)n1            -32
5  CC(=O)Nc1ccc(-c2cc(-c3ccccc3)nc(-c3ccccc3)n2)cc1              5
6  Cc1cc(SCC(=O)Nc2ccc3[nH]c(=O)[nH]c3c2)nc2ccccc12              8
7  Cn1c(SCC(=O)NC2CCCCC2)nnc1-c1cc2cc(Cl)ccc2o1              0
8  Cc1ccc(C(C)C)c(OCC(=O)Nc2ccc(N3CCN(S(C)(=O)=O)CC3)cc2)c1            -19

====

System: anti-Dsg3 scFv antibody binding to human desmoglein-3
Test Details: inhibitors of pemphigus antibody-Dsg3 interaction – biochemical, ELISA, orthogonal assay for pemphigus antibody inhibitor project, confirmation (AID 624333)
Condition Info: OD, at 200 µM, stronger effect = higher value
Each entry below carries its reported inhibition of binding.
Measurement Name: inhibition of binding (%)

>>> df
                                   molecule  units  numeric_value
0  OCc1cn(-c2ccccc2)nc1-c1ccc(-c2nn(-c3ccccc3)cc2CO)cc1      %            -14
1  NS(=O)(=O)c1ccc(NC(=O)c2cc(-c3cccs3)nc3ccccc23)cc1      %            -18
2  COc1ccc(OC)c(NC(=O)c2nc(-c3ccccc3)oc2C)c1      %             -2
3  Cc1c(C(=O)Nc2ccc(OCc3ccccc3)cc2)cccc1[N+](=O)[O-]      %            -33
4  COc1cc(OC)cc(N(C(=O)C2COc3ccccc3O2)C(C(=O)NC2CCCCC2)c2ccc(O)cc2)c1 (stereo not given)      %             -3
